B1: CPEB3 Ribozyme (parent)
chain: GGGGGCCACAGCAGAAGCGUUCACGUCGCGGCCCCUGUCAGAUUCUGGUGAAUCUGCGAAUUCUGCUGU

- Variants of: B1
- test.protocol: self-cleavage, relative activity (ratio to wild type); higher = more cleavage; co-transcriptional
Recorded measurements of self-cleavage, one per entry
Just the number, please, no unit after it.

> print(dat)
                              sequence.text  value.observed
1  GGGGGCCACAGCAGAAGCGUUCACGUAGCGGCCCCUGUCAGAUUCUGGUGCAUCUGCGAAUUCUGCUGU [C27A A51C]           0.494
2  GGGGGGCACAGUAGAAGCGUUCACGUCGCGGCCCCUGUCAGAUUCUGGUGAAUCUGCGAAUUCUGCUGU [C6G C12U]           0.271

Proceed to the following item.
self-cleavage measured on GGGGGCCACAGCAGAAGCCUUCACGUCGCGGCCCCUGCCAGAUUCUGGUGAAUCUGCGAAUUCUGCUGU [G19C U38C] = 0.135
